- TARGET UNDER TEST: SIRT6 enzyme (Homo sapiens, UniProt Q8N6T7)
- Sequence (Q8N6T7 whole entry, species assumed): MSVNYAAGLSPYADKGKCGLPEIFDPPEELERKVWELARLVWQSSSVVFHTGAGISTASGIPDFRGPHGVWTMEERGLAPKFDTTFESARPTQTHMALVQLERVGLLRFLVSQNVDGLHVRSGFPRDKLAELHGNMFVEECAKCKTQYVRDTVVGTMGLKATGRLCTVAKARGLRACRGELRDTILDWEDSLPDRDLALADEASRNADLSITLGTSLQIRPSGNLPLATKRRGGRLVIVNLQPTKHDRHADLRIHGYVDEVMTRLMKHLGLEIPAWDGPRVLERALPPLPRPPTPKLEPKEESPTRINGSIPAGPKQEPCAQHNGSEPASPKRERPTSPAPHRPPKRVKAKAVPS
- RUN DESCRIPTION: Measurement of deacetylation activity (SIRT6, AlphaLISA, H3K9(Ac) peptide)
- Type: biochemical
- RECORDED CONDITIONS: SIRT6 25 ng/mL, H3K9(Ac) biotin peptide 2 nM, NAD 10 μM, room temperature 30 minutes, duplicate
Below, each entry is listed with its recorded EC150 (the concentration of the compound showing a relative enzyme activity of 150%).
MEASUREMENT NAME: EC150 (the concentration of the compound showing a relative enzyme activity of 150%) (μm)

MOLECULE: O=C(Nc1nc2c(s1)[C@@H]1COC[C@H](C2)N1c1cc(-c2ccc(F)cc2)on1)N[C@H]1CC[C@H](O)CC1 [Example 159]
TEST VALUE: 1.3
//
MOLECULE: C[C@H](CO)NC(=O)Nc1nc2c(s1)[C@@H]1COC[C@H](C2)N1c1nc2cc(C(F)F)ccc2o1 [Example 56]
TEST VALUE: 0.19
//
MOLECULE: CNC(=O)Nc1nc2c(s1)C1COCC(C2)N1c1cc(-c2ccc(F)cc2)on1 (stereo not shown) [Example 16]
TEST VALUE: 4.2
//
MOLECULE: CNC(=O)Nc1nc2c(s1)C1CCC(C2)N1c1cc(-c2ccc(F)cc2)on1 (stereo not shown) [Example 11]
TEST VALUE: 4.3

----------
Below, each entry is listed with its recorded EC150 (the concentration of the compound showing a relative enzyme activity of 150%).
- TARGET UNDER TEST: SIRT6 enzyme (Homo sapiens, UniProt Q8N6T7)
- RUN DESCRIPTION: Measurement of deacetylation activity (SIRT6, AlphaLISA, H3K9(Ac) peptide)
- Type: biochemical
- RECORDED CONDITIONS: SIRT6 25 ng/mL, H3K9(Ac) biotin peptide 2 nM, NAD 10 μM, room temperature 30 minutes, duplicate
MEASUREMENT NAME: EC150 (the concentration of the compound showing a relative enzyme activity of 150%) (μm)

COMPOUND STRUCTURE: O=C(Nc1nc2c(s1)[C@@H]1COC[C@H](C2)N1c1ncc(-c2cccc(OC(F)F)n2)o1)NC1(CO)CC1
TARGET UNDER TEST: SIRT6 enzyme (Homo sapiens, UniProt Q8N6T7)
UNIT STRING: μm
TEST VALUE: 0.53

COMPOUND STRUCTURE: O=C(Nc1nc2c(s1)[C@@H]1COC[C@H](C2)N1c1nc2cc(OC(F)(F)F)ccc2o1)N[C@H]1C[C@H](O)C1
TARGET UNDER TEST: SIRT6 enzyme (Homo sapiens, UniProt Q8N6T7)
UNIT STRING: μm
TEST VALUE: 0.48

COMPOUND STRUCTURE: CC(C)(O)CNC(=O)Nc1nc2c(s1)CN(c1nc3cc(S(C)(=O)=O)ccc3o1)C(C)(C)C2
TARGET UNDER TEST: SIRT6 enzyme (Homo sapiens, UniProt Q8N6T7)
UNIT STRING: μm
TEST VALUE: 0.94

COMPOUND STRUCTURE: C[C@H](CO)NC(=O)Nc1nc2c(s1)[C@@H]1COC[C@H](C2)N1c1ncc(-c2cccc(OC(F)F)n2)o1
TARGET UNDER TEST: SIRT6 enzyme (Homo sapiens, UniProt Q8N6T7)
UNIT STRING: μm
TEST VALUE: 0.39

COMPOUND STRUCTURE: [2H]C([2H])([2H])Oc1ccc2oc(N3[C@@H]4COC[C@H]3c3sc(NC(=O)N[C@@H]5CCOC5)nc3C4)nc2c1
TARGET UNDER TEST: SIRT6 enzyme (Homo sapiens, UniProt Q8N6T7)
UNIT STRING: μm
TEST VALUE: 0.79

COMPOUND STRUCTURE: CCc1cccc(-c2nnc(N3[C@@H]4COC[C@H]3c3sc(NC(=O)NC)nc3C4)o2)c1
TARGET UNDER TEST: SIRT6 enzyme (Homo sapiens, UniProt Q8N6T7)
UNIT STRING: μm
TEST VALUE: 1.8

COMPOUND STRUCTURE: O=C(Nc1nc2c(s1)[C@@H]1COC[C@H](C2)N1c1ncc(-c2cccc(OC(F)F)c2)o1)N[C@H]1C[C@H](O)C1
TARGET UNDER TEST: SIRT6 enzyme (Homo sapiens, UniProt Q8N6T7)
UNIT STRING: μm
TEST VALUE: 0.43

----------
Below, each entry is listed with its recorded EC150 (the concentration of the compound showing a relative enzyme activity of 150%).
- TARGET UNDER TEST: UniProt Q8N6T7
- RUN DESCRIPTION: Measurement of deacetylation activity (SIRT6, AlphaLISA, H3K9(Ac) peptide)
- Type: biochemical
- RECORDED CONDITIONS: SIRT6 25 ng/mL, H3K9(Ac) biotin peptide 2 nM, NAD 10 μM, room temperature 30 minutes, duplicate
MEASUREMENT NAME: EC150 (the concentration of the compound showing a relative enzyme activity of 150%)

COMPOUND: O=C(Nc1nc2c(s1)CN(c1nc(C3CCC(F)(F)C3)no1)CC2)N[C@H]1C[C@H](O)C1 (stereo partly shown) [Example 35]
TEST VALUE: 1 μm
//
COMPOUND: C[C@H]1NC(=O)N(c2nc3c(s2)[C@@H]2COC[C@H](C3)N2c2nc(-c3ccc(F)cc3)no2)C1=O [Example 20]
TEST VALUE: 2.6 μm
//
COMPOUND: O=C(Nc1nc2c(s1)C1COCC(C2)N1c1nnc(-c2cccc(OC(F)F)c2)o1)N[C@H]1CCOC1 (stereo partly shown) [Example 115]
TEST VALUE: 2 μm
//
COMPOUND: O=C(NCc1cncnc1)Nc1nc2c(s1)CN(c1nc(C3CCC(F)(F)CC3)no1)CC2 [Example 99]
TEST VALUE: 1.1 μm

----------
Below, each entry is listed with its recorded EC150 (the concentration of the compound showing a relative enzyme activity of 150%).
- TARGET UNDER TEST: SIRT6 enzyme (Homo sapiens, UniProt Q8N6T7)
- RUN DESCRIPTION: Measurement of deacetylation activity (SIRT6, AlphaLISA, H3K9(Ac) peptide)
- Format: biochemical
- RECORDED CONDITIONS: SIRT6 25 ng/mL, H3K9(Ac) biotin peptide 2 nM, NAD 10 μM, room temperature 30 minutes, duplicate
MEASUREMENT NAME: EC150 (the concentration of the compound showing a relative enzyme activity of 150%) (μm)

COMPOUND: CC(C)(O)CNC(=O)Nc1nc2c(s1)CN(c1nc(C3CCC(F)(F)CC3)no1)CC2
TEST VALUE: 1.1
--
COMPOUND: O=C(NCC1(O)CCOCC1)Nc1nc2c(s1)[C@@H]1COC[C@H](C2)N1c1nc2cc(Cl)ccc2o1
TEST VALUE: 0.43
--
COMPOUND: COc1cccc(-c2cnc(N3[C@@H]4COC[C@H]3c3sc(NC(=O)N[C@H](C)CO)nc3C4)o2)n1
TEST VALUE: 0.75
--
COMPOUND: CNC(=O)Nc1nc2c(s1)[C@@H]1COC[C@H](C2)N1c1nnc(-c2cccc(C(C)C)c2)o1
TEST VALUE: 2.2
--
COMPOUND: O=C(Nc1nc2c(s1)CN(c1nc(C3CCC(F)(F)CC3)no1)CC2)N[C@H]1CC[C@H](O)CC1
TEST VALUE: 0.81
--
COMPOUND: C[C@H](CO)NC(=O)Nc1nc2c(s1)C1COCC(C2)N1c1nc(-c2ccc(F)cc2)no1 (stereo partly drawn)
TEST VALUE: 0.95
--
COMPOUND: CC(C)NC(=O)Nc1nc2c(s1)[C@@H]1COC[C@H](C2)N1c1nnc(-c2cccc(C(=O)C3CC3)c2)o1
TEST VALUE: 1
--
COMPOUND: CC(C)(O)CNC(=O)Nc1nc2c(s1)[C@@H]1COC[C@H](C2)N1c1nc2cc(C(F)F)ccc2o1
TEST VALUE: 0.29
--
COMPOUND: C[C@H](O)CNC(=O)Nc1nc2c(s1)C1COCC(C2)N1c1nc(-c2ccc(F)cc2)no1 (stereo partly drawn)
TEST VALUE: 1.4
--
COMPOUND: CNC(=O)Nc1nc2c(s1)[C@@H]1COC[C@H](C2)N1c1nc2cc(C)ccc2o1
TEST VALUE: 1.5
--
COMPOUND: O=C(Nc1nc2c(s1)[C@@H]1COC[C@H](C2)N1c1nc2cc(Cl)ccc2o1)N[C@H]1CC[C@H](O)CC1
TEST VALUE: 0.45
--
COMPOUND: O=C(Nc1nc2c(s1)[C@@H]1COC[C@H](C2)N1c1cc(-c2ccc(F)cc2)on1)N[C@H]1CC[C@@H](O)CC1
TEST VALUE: 1.9
--
COMPOUND: Cc1cc2nc(N3[C@@H]4COC[C@H]3c3sc(NC(=O)NCC(C)(C)O)nc3C4)oc2cc1C#N
TEST VALUE: 0.47
--
COMPOUND: O=C(NCc1ccc[nH]c1=O)Nc1nc2c(s1)CN(c1nc(C3CCC(F)(F)CC3)no1)CC2
TEST VALUE: 1.8
--
COMPOUND: CCOc1ccc2oc(N3[C@@H]4COC[C@H]3c3sc(NC(=O)NCC(C)(C)O)nc3C4)nc2c1
TEST VALUE: 3.1
